# reported pIC50; entries follow
# assay.system: Acetylcholinesterase (Homo sapiens)
# Sequence (P22303 whole entry): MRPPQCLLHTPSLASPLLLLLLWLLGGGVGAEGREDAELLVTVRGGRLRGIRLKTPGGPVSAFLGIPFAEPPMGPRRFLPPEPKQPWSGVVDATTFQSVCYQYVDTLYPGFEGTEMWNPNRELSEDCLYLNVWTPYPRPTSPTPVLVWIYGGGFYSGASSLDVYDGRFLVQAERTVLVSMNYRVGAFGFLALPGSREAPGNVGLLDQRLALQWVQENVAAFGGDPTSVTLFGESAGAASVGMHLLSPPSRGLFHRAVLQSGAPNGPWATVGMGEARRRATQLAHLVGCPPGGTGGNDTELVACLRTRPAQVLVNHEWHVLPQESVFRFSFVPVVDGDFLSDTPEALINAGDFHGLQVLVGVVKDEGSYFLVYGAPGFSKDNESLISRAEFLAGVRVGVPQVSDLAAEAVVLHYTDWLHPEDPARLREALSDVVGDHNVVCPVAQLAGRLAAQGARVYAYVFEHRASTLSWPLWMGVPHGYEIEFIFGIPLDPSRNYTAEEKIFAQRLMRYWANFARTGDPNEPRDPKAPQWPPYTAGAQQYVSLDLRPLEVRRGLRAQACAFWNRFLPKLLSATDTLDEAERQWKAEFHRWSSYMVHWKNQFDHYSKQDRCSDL
# protocol: Inhibition of AChE (unknown origin) using acetylthiocholine as substrate preincubated for 15 mins followed by substrate addition measured every minute for 15 mins by Ellman's method
pIC50: −log10 of the molar value.

Previously resolved entries follow.
# compound, measured.endpoint, test.result
data = [
    ("C=C[C@@H]1[C@@H]2CC3=C(CCC(=O)N3)[C@@]1(N)C[C@H](C)C2", "pIC50", "< 4.52"),
    ("CC1C[C@H]2[C@H](O)[C@@H]3O[C@]4(C1)OC1CCN5CCCC24[C@]13C5 (stereo partly drawn)", "pIC50", "< 4.52"),
]

// next entry
Field pIC50 (system: Acetylcholinesterase (Homo sapiens)) for entry C[C@@H]1C[C@H]2Cc3ncc(C4CCCCN4)cc3[C@]3(C1)NCCC[C@H]23 (stereo partly drawn) = < 4.52
